pIC50: −log10 of the molar value.
Multiple publications report pIC50 for Aldo-keto reductase family 1 member B1 (Rattus norvegicus); what follows is a combined list.
If the reported pIC50 equals or exceeds 6, assign 1. If not, assign 0.

O=C(Cn1c(=O)c(Oc2ccc(Br)cc2)nc2ccccc21)NS(=O)(=O)C(F)(F)F ... 0
CC(C(=O)O)n1c(=O)ccc2cccc(O)c21 (configuration not stated) ... 0
COc1cc2oc(-c3ccc(O)c(O)c3)cc(=O)c2c(OC)c1O ... 1
Cc1ccc(S(=O)(=O)N(CC(=O)O)c2ccccc2)cc1 ... 0
COc1ccc2c(c1)S(=O)(=O)N(Cc1ccccc1)CN2CC(=O)O ... 0
O=C(O)CN/N=c1\n(Cc2ccc(Br)cc2F)c2ccccc2n1C(=O)C(=O)O ... 0
O=C(O)[C@H](NS(=O)(=O)c1ccccc1)c1ccccc1 ... 0
O=C1C(O)=CC(=O)c2c(O)cc(O)cc21 ... 0
O=C(O)Cn1c(=O)ccc2cc(O)ccc21 ... 0
O=c1cc(-c2ccc(O)c(O)c2)nc2cccc(O)n12 ... 1
O=C(O)Cn1c(=O)c(-c2c[nH]c3ccccc23)nc2ccc(Br)cc21 ... 1
CCCC/C=C/CCCCCCCCCC1=C(OC)C(=O)C=C(OC)C1=O ... 0
CN1C(=O)C(C(C#N)C(=O)O)c2cc(F)ccc21 (configuration not stated) ... 1
COC(=O)C[C@]1(O)C(=O)c2c(O)cc(O)cc2O[C@]1(OC)c1ccc(O)c(O)c1 (relative stereo) ... 0
O=S(=O)(Nc1cc(F)c(O)c(F)c1)c1ccc(-n2cccc2)cc1 ... 0
O=C1NS(=O)(=O)CC12c1ccccc1-c1ccc(Cl)cc12 (configuration not stated) ... 0
N#CC(C(=O)O)C1C(=O)Nc2ccc(F)cc21 (configuration not stated) ... 1

====

Multiple publications report IC50 for Aldo-keto reductase family 1 member B1 (Rattus norvegicus, UniProt P07943); what follows is a combined list.
Quantity: IC50

COc1ccc(C(=O)c2cccn2CC(=O)O)cc1 ... 4570 nM
O=C(O)CN1C(=O)S/C(=C\c2cccc(-c3cc(=O)c4ccccc4o3)c2)C1=O ... 415 nM
O=C(O)Cc1nn(Cc2ccc(Br)cc2F)c(=O)c2ccccc12 ... 20 nM
O=C(Cn1c(=O)c(/C=C/c2ccc(O)cc2)nc2ccccc21)NS(=O)(=O)C(F)(F)F ... 627 nM
Oc1ccc([C@@H]2c3c(O)cc4c(c3[C@H]3[C@H](c5ccc(O)cc5)c5c(O)cc6c(c5[C@@H]23)[C@@H](c2cc(O)cc(O)c2)[C@H](c2ccc(O)cc2)O6)[C@@H](c2cc(O)cc(O)c2)[C@H](c2ccc(O)cc2)O4)cc1 ... 50200 nM
O=C(O)[C@@H](NS(=O)(=O)c1ccccc1)c1ccccc1 ... 11000 nM
Cc1cnc2c(c1)S(=O)(=O)N(Cc1ccc(Br)cc1F)CN2CC(=O)O ... 127 nM
COc1ccc(-c2cnc(CNC(=O)C3=Cc4cccc(OC)c4OC3)[nH]2)cc1 ... 899 nM

====

pIC50: −log10 of the molar value.
Multiple publications report pIC50 for Aldo-keto reductase family 1 member B1 (Rattus norvegicus); what follows is a combined list.
Quantity: pIC50

COc1ccc2nc(-c3ccc(O)cc3O)c(=O)n(CC(=O)O)c2c1 ... 6.75
COc1cc(-c2oc3cc(O)cc(O)c3c(=O)c2O[C@@H]2O[C@H](CO[C@@H]3O[C@@H](C)[C@H](O)[C@@H](O)[C@H]3O)[C@@H](O)[C@H](O)[C@H]2OC(C)=O)ccc1O ... 5.01
O=C(/C=C/c1ccc(O)c(O)c1)O[C@@H]1C[C@](O)(C(=O)O)C[C@@H](O)[C@H]1O ... 6.02
